The following compounds are shown together with reported IC50 values.
- SYSTEM NAME: Replicase polyprotein 1ab (Severe acute respiratory syndrome coronavirus 2, UniProt P0DTD1)
- PROTOCOL SUMMARY: Inhibition of SARS-CoV-2 main protease by FRET assay
Response body: numeric value in µM, unit text excluded.

Known results for compounds:
{"columns": ["COMPOUND", "MEASUREMENT UNIT", "IC50"],
 "data": [
  ["O=C1CCCC2=C1CN(C(=O)CCl)c1ccc([N+](=O)[O-])cc1N2", "µM", 5.11],
  ["CC1(C)CC(=O)C2=C(C1)Nc1cc([N+](=O)[O-])ccc1N(C(=O)CCl)C2c1ccc(OC(F)(F)F)cc1 (stereo not drawn)", "µM", 5.68],
  ["CC1(C)CC(=O)C2=C(C1)Nc1cc([N+](=O)[O-])ccc1N(C(=O)CCl)C2C1CCCC1 (stereo not drawn)", "µM", 9.12]
]}

Record O=C1CCCC2=C1C(c1ccc(C(F)(F)F)cc1)N(C(=O)CCl)c1ccc([N+](=O)[O-])cc1N2 (stereo not drawn) , field IC50: 1.02

Measured IC50, CC1CC(=O)C2=C(C1)Nc1cc([N+](=O)[O-])ccc1N(C(=O)CCl)C2c1ccc(OC(F)(F)F)cc1 (stereo not drawn) : 4.15

The reported IC50 of the compound O=C1CCCC2=C1C(C1CC1)N(C(=O)CCl)c1ccc([N+](=O)[O-])cc1N2 (stereo not drawn) was 2.55

Briefly, IC50 measured for CC1(C)CC(=O)C2=C(C1)Nc1cc([N+](=O)[O-])ccc1N(C(=O)CCl)C2C1CCCCC1 (stereo not drawn) : 5.26

// CC1CC(=O)C2=C(C1)Nc1cc([N+](=O)[O-])ccc1N(C(=O)CCl)C2C1CCCC1 (stereo not drawn) : IC50 value = 5.15
